Data provenance is patent US8197860B2.

# System: Caco2 cells
# protocolDescription: Folate uptake assay
# Format: cell-based, human
# condition: compound 0.1 μM, 2 days; 5 μM folate, pH 6.0
experimentalEndpoint: Uptake rate (folate) (pmol/mg/min)

compound	unitString	testResult
CC(=O)OC1C(O)COC(OC2CCC34CC35CCC3(C)C(C6(C)CCC(C(C)(C)O)O6)C(O)CC3(C)C5CC(OC3OC(CO)C(O)C(O)C3O)C4C2(C)C)C1OC(C)=O (stereo not shown) [AS1, astragaloside I]	pmol/mg/min	79.710

----------
# Tested on: Caco-2 cell monolayer
# protocolDescription: Tryptophan absorption assay (transport across Caco-2 cell monolayer)
# Type: cell-based, human
# condition: compound 0.01 μM
experimentalEndpoint: Transport rate (tryptophan) (nmol/min)

molecule	experimentalEndpoint	testResult
CC(C)(O)[C@@H]1CC[C@](C)([C@H]2[C@@H](O)C[C@@]3(C)[C@@H]4C[C@H](O)[C@H]5C(C)(C)[C@@H](O[C@@H]6OC[C@@H](O)[C@H](O)[C@H]6O[C@@H]6O[C@H](CO)[C@@H](O)[C@H](O)[C@H]6O)CC[C@@]56C[C@@]46CC[C@]23C)O1 [AS3, astragaloside III]	Transport rate (tryptophan)	14.290
CC(=O)OC1C(O)COC(OC2CCC34CC35CCC3(C)C(C6(C)CCC(C(C)(C)O)O6)C(O)CC3(C)C5CC(OC3OC(CO)C(O)C(O)C3O)C4C2(C)C)C1OC(C)=O (centres unmarked) [AS1, astragaloside I]	Transport rate (tryptophan)	22.220
CC(=O)O[C@H]1[C@H](O[C@H]2CC[C@]34C[C@]35CC[C@]3(C)[C@@H]([C@@]6(C)CC[C@@H](C(C)(C)O)O6)[C@@H](O)C[C@@]3(C)[C@@H]5C[C@H](O[C@@H]3O[C@H](CO)[C@@H](O)[C@H](O)[C@H]3O)[C@H]4C2(C)C)OC[C@@H](O)[C@@H]1O [AS2, astragaloside II]	Transport rate (tryptophan)	10.290
CC(C)(O)C1CC[C@](C)(C2[C@@H](O)C[C@@]3(C)C4C[C@H](OC5OC(CO)C(O)C(O)C5O)C5C(C)(C)[C@@H](O)CCC56CC46CC[C@]23C)O1 (some centres unmarked)	Transport rate (tryptophan)	11.900
CC(=O)O[C@@H]1[C@@H](O)[C@H](O[C@H]2CC[C@]34C[C@]35CC[C@]3(C)[C@@H]([C@@]6(C)CC[C@@H](C(C)(C)O)O6)[C@@H](O)C[C@@]3(C)[C@@H]5C[C@H](O[C@@H]3O[C@H](CO)[C@@H](O)[C@H](O)[C@H]3O)[C@H]4C2(C)C)OC[C@H]1O [IsoAS2, isoastragaloside II]	Transport rate (tryptophan)	13.000

----------
# Test system: Caco-2 cell monolayer
# protocolDescription: Arginine absorption assay (transport across Caco-2 cell monolayer)
# Assay type: cell-based, human
# condition: compound 0.1 μM
Below: a set of entries, each annotated with reported Percentage (arginine transport, control = 100).
experimentalEndpoint: Percentage (arginine transport, control = 100)

molecule	testResult
CC(C)(O)[C@@H]1CC[C@](C)([C@H]2[C@@H](O)C[C@@]3(C)[C@@H]4C[C@H](O)[C@H]5C(C)(C)[C@@H](O[C@@H]6OC[C@@H](O)[C@H](O)[C@H]6O[C@@H]6O[C@H](CO)[C@@H](O)[C@H](O)[C@H]6O)CC[C@@]56C[C@@]46CC[C@]23C)O1 [AS3, astragaloside III]	124.33%
CC(=O)O[C@@H]1[C@@H](O)[C@H](O[C@H]2CC[C@]34C[C@]35CC[C@]3(C)[C@@H]([C@@]6(C)CC[C@@H](C(C)(C)O)O6)[C@@H](O)C[C@@]3(C)[C@@H]5C[C@H](O[C@@H]3O[C@H](CO)[C@@H](O)[C@H](O)[C@H]3O)[C@H]4C2(C)C)OC[C@H]1O [IsoAS2, isoastragaloside II]	132.01%
CC(C)(O)[C@@H]1CC[C@](C)([C@H]2[C@@H](O)C[C@@]3(C)[C@@H]4C[C@H](O[C@@H]5O[C@H](CO)[C@@H](O)[C@H](O)[C@H]5O)[C@H]5C(C)(C)[C@@H](O[C@@H]6OC[C@@H](O)[C@H](O)[C@H]6O)CC[C@@]56C[C@@]46CC[C@]23C)O1 [AS4, astragaloside IV]	172.73%
CC(=O)OC1C(O)COC(OC2CCC34CC35CCC3(C)C(C6(C)CCC(C(C)(C)O)O6)C(O)CC3(C)C5CC(OC3OC(CO)C(O)C(O)C3O)C4C2(C)C)C1OC(C)=O (stereo not drawn) [AS1, astragaloside I]	147.21%
CC(C)(O)[C@@H]1CC[C@](C)([C@H]2[C@@H](O)C[C@@]3(C)[C@@H]4C[C@H](O[C@@H]5O[C@H](CO)[C@@H](O)[C@H](O)[C@H]5O)[C@H]5C(C)(C)[C@@H](O[C@@H]6OC[C@@H](O)[C@H](O)[C@H]6O[C@@H]6O[C@H](CO)[C@@H](O)[C@H](O)[C@H]6O)CC[C@@]56C[C@@]46CC[C@]23C)O1 [AS6, astragaloside VI]	140.36%
CC(=O)O[C@H]1[C@H](O[C@H]2CC[C@]34C[C@]35CC[C@]3(C)[C@@H]([C@@]6(C)CC[C@@H](C(C)(C)O)O6)[C@@H](O)C[C@@]3(C)[C@@H]5C[C@H](O[C@@H]3O[C@H](CO)[C@@H](O)[C@H](O)[C@H]3O)[C@H]4C2(C)C)OC[C@@H](O)[C@@H]1O [AS2, astragaloside II]	161.69%

----------
# Tested on: Caco-2 cell monolayer
# protocolDescription: Tryptophan absorption assay (transport across Caco-2 cell monolayer)
# Type: cell-based, human
# condition: compound 0.01 μM

compound	Transport rate (tryptophan), nmol/min
CC(=O)O[C@H]1[C@H](O[C@H]2CC[C@]34C[C@]35CC[C@]3(C)[C@@H]([C@@]6(C)CC[C@@H](C(C)(C)O)O6)[C@@H](O)C[C@@]3(C)[C@@H]5C[C@H](O[C@@H]3O[C@H](CO)[C@@H](O)[C@H](O)[C@H]3O)[C@H]4C2(C)C)OC[C@@H](OC(C)=O)[C@@H]1O [IsoAS1, isoastragaloside I]	10.370
CC(C)(O)[C@@H]1CC[C@](C)([C@H]2[C@@H](O)C[C@@]3(C)[C@@H]4C[C@H](O[C@@H]5O[C@H](CO)[C@@H](O)[C@H](O)[C@H]5O)[C@H]5C(C)(C)[C@@H](O[C@@H]6OC[C@@H](O)[C@H](O)[C@H]6O)CC[C@@]56C[C@@]46CC[C@]23C)O1 [AS4, astragaloside IV]	10.130
CC(C)(O)[C@@H]1CC[C@](C)([C@H]2[C@@H](O)C[C@@]3(C)[C@@H]4C[C@H](O[C@@H]5O[C@H](CO)[C@@H](O)[C@H](O)[C@H]5O)[C@H]5C(C)(C)[C@@H](O[C@@H]6OC[C@@H](O)[C@H](O)[C@H]6O[C@@H]6O[C@H](CO)[C@@H](O)[C@H](O)[C@H]6O)CC[C@@]56C[C@@]46CC[C@]23C)O1 [AS6, astragaloside VI]	15.510

----------
# Uptake rate (folate) listing for each entry below
# Tested on: Caco2 cells
# protocolDescription: Folate uptake assay
# Assay type: cell-based, human
# condition: compound 0.1 μM, 2 days; 5 μM folate, pH 6.0
experimentalEndpoint: Uptake rate (folate) (pmol/mg/min)

compound	testResult
CC(=O)O[C@@H]1[C@@H](O)[C@H](O[C@H]2CC[C@]34C[C@]35CC[C@]3(C)[C@@H]([C@@]6(C)CC[C@@H](C(C)(C)O)O6)[C@@H](O)C[C@@]3(C)[C@@H]5C[C@H](O[C@@H]3O[C@H](CO)[C@@H](O)[C@H](O)[C@H]3O)[C@H]4C2(C)C)OC[C@H]1O [IsoAS2, isoastragaloside II]	86.63
CC(C)(O)[C@@H]1CC[C@](C)([C@H]2[C@@H](O)C[C@@]3(C)[C@@H]4C[C@H](O[C@@H]5O[C@H](CO)[C@@H](O)[C@H](O)[C@H]5O)[C@H]5C(C)(C)[C@@H](O[C@@H]6OC[C@@H](O)[C@H](O)[C@H]6O[C@@H]6O[C@H](CO)[C@@H](O)[C@H](O)[C@H]6O)CC[C@@]56C[C@@]46CC[C@]23C)O1 [AS6, astragaloside VI]	84.560
CC(C)(O)[C@@H]1CC[C@](C)([C@H]2[C@@H](O)C[C@@]3(C)[C@@H]4C[C@H](O)[C@H]5C(C)(C)[C@@H](O[C@@H]6OC[C@@H](O)[C@H](O)[C@H]6O[C@@H]6O[C@H](CO)[C@@H](O)[C@H](O)[C@H]6O)CC[C@@]56C[C@@]46CC[C@]23C)O1 [AS3, astragaloside III]	80.380
